- Tgt: T1, biotinylated recombinant human IL-12Rβ2 (produced in-house) (human, UniProt Q99665 24-622, random biotinylated)
- T1 construct: also called hIL-12RB2; hIL12RB2
- T1 sequence: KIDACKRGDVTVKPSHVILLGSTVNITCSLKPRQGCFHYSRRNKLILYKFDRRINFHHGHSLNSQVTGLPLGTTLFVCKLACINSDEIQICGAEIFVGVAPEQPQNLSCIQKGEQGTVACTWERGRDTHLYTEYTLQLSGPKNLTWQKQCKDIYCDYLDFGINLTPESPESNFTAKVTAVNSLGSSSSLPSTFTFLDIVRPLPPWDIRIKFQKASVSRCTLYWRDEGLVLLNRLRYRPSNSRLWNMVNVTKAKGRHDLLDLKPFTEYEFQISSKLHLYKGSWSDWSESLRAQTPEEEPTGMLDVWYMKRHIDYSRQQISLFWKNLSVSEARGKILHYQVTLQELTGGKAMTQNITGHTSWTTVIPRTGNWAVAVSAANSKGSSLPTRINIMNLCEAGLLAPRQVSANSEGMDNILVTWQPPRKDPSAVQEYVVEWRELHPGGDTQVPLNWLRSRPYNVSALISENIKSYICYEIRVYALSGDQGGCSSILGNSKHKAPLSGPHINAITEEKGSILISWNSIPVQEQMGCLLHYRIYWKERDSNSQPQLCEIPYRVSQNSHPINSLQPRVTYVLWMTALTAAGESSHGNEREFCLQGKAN
- Experiment summary: BLI (Octet), P.E. VHH on immobilised biotinylated hIL-12RB2, 1:1 model

| Binder | koff [s⁻¹] |
| --- | --- |
| anti-IL-12Rβ2 VHH clone 3CRHS128 (VHH, not shown: small tags and cut ends, tested as periplasmic extract; also called SCRHS128) VHH: QVQLQESGGGLVQPGGSLRLSCAASGFTFSTSGMHWFRQAPGKGLEWVSSIGATVDNSYYASSVKGRFTISRDNAKNTLYLLMNSLKSEDTAVYYCSKDPTGSSRGQGTQVTVSS | 0.00274 |
| anti-IL-12Rβ2 VHH clone 3CRHM14 (VHH, not shown: small tags and cut ends, tested as periplasmic extract) VHH: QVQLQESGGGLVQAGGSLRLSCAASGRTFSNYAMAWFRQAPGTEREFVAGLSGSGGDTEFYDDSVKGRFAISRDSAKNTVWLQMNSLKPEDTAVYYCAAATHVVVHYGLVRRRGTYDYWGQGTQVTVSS | 0.00532 |
| anti-IL-12Rβ2 VHH clone 3CAHS41 (VHH, not shown: small tags and cut ends, tested as periplasmic extract) VHH: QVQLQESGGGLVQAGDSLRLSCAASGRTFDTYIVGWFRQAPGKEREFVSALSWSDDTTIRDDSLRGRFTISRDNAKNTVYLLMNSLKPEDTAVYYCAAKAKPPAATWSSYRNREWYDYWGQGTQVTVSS | 0.00441 |
| anti-IL-12Rβ2 VHH clone 3CRHS51 (VHH, not shown: small tags and cut ends, tested as periplasmic extract; also called 3CRASS1) VHH: QVQLQESGGGLVQPGGSLRLSCAASGFTFSTYAMSWVRQAPGKGLEWVSAVNSGGLSTDYADSVEGRFTISRDDAKNMLFLQMNRLKPEDTARYYCAKYEDCSDYVCDRAGYWGQGTQVTVSS | 0.0043 |
